target: human δ opioid receptor (human, UniProt P41143 1-372); experiment: cell-based or functional assay
Sequence (P41143 whole entry, stated change not applied): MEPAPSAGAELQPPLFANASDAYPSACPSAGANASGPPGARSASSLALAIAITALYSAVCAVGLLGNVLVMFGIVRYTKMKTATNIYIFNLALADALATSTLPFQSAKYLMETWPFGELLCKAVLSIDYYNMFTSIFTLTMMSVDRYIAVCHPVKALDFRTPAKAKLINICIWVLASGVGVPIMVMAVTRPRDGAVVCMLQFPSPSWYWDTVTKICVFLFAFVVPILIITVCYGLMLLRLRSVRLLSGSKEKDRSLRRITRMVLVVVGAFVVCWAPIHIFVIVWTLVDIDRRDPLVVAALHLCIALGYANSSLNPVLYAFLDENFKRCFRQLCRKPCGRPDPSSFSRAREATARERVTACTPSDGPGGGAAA
Square brackets hold non-standard residues; d marks the D form. Primed or numbered codes have the meaning given here. Ends that are not written are not given here. O‑Bzl(CF3)2 = C-terminal bis(trifluoromethyl)benzyl ester; O‑Bzl(CF3)2″ = C-terminal Bzl(CF3)2 ester; Abu = CC[C@H](N)C(=O)O; Aib = CC(C)(N)C(=O)O; βAla = NCCC(=O)O
I'd be grateful if you could share measured GTP EMax for these entries.
Just the number, please, no unit after it.

Return GTP EMax for the following binder: Y[dA]GFMW-{O‑Bzl(CF3)2} (also called NP38) [Tyr-DAla-Gly-Phe-Met-Trp-O-Bzl(CF3)2]
36

Return GTP EMax for the following binder: Y[dA]GFLW-{O‑Bzl(CF3)2} (also called NP37) [Tyr-DAla-Gly-Phe-Leu-Trp-O-Bzl(CF3)2]
60

Return GTP EMax for the following binder: Y[dA]GFGW-{O‑Bzl(CF3)2} [Tyr-DAla-Gly-Phe-Gly-Trp-O-Bzl(CF3)2]
87

Return GTP EMax for the following binder: Y[dA]GF[Aib]W-{O‑Bzl(CF3)2″} (also called NP41) [Tyr-DAla-Gly-Phe-Aib-Trp-O-Bzl(CF3)2]
65

Return GTP EMax for the following binder: Y[dA]GFXW-{O‑Bzl(CF3)2} (not fully specified (residue 5); printed as Tyr-DAla-Gly-Phe-γ-Abu-Trp-O-Bzl(CF3)2, also called NP34) [Tyr-DAla-Gly-Phe-γ-Abu-Trp-O-Bzl(CF3)2]
40

Return GTP EMax for the following binder: Y[dA]GF[βAla]W-{O‑Bzl(CF3)2} (also called NP32) [Tyr-DAla-Gly-Phe-β-Ala-Trp-O-Bzl(CF3)2]
87

Return GTP EMax for the following binder: Y[dA]GF[Abu]W-{O‑Bzl(CF3)2} (also called NP33) [Tyr-DAla-Gly-Phe-α-Abu-Trp-O-Bzl(CF3)2]
43

Return GTP EMax for the following binder: Y[dA]GFAW-{O‑Bzl(CF3)2} (also called NP31) [Tyr-DAla-Gly-Phe-Ala-Trp-O-Bzl(CF3)2]
91

Return GTP EMax for the following binder: Y[dA]GFPW-{O‑Bzl(CF3)2} (also called NP39) [Tyr-DAla-Gly-Phe-Pro-Trp-O-Bzl(CF3)2]
56

Return GTP EMax for the following binder: Y[dA]GF[dA]W-{O‑Bzl(CF3)2} (also called NP40) [Tyr-DAla-Gly-Phe-D-Ala-Trp-O-Bzl(CF3)2]
89
